B1: Membrane-associated guanylate kinase, WW and PDZ domain-containing protein 2, residues 296 to 340; numbered along this chain, Q86UL8 (parent)
chain: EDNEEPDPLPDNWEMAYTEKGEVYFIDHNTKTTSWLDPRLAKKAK

- Variants of: B1
- test-method-notes: abundance fitness (aPCA) (normalised: wild type 0, dead -1); higher = more abundant; growth selection in yeast, the domain comes from the species named
- experimental-context: Homo sapiens
# key: entry, value: abundance fitness
assay-readout: abundance fitness

1. T18A; -0.308
2. E22T; -0.295
3. N12M; -0.292
